Provenance of the data: the supplement of paper PMC10567573

B1: KLHL13 (parent)
chain: GVSKVGLRKIIDFIYTAKLSLNMD

Variants of: B1
Protocol Notes: protein stability index of a GFP-peptide fusion (GPS, HEK-293T) (PSI 1-6); higher = more stable;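 note: lentivirally expressed fusions sorted by FACS into six bins by GFP to DsRed ratio, PSI derived from sequencing read proportions per bin multiplied by bin number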
Condition Description: c terminus: a fixed tail appended
I'd appreciate it if you could label each record using protein stability index and these ranges: lower bin (below 2), middle bin (2 to below 3), upper bin (3 or more)

Examples with answers:
Input Sequence	Category Label
GVSKVGLRKIIDTIYTAKLSLNMD [F13T]	lower bin
GVSKVGLRKSIDFIYTAKLSLNMD [I10S]	upper bin
GVSKVGLRKIIDSIYTAKLSLNMD [F13S]	lower bin
GVSKVGLRKIIDFIYTAMLSLNMD [K18M]	middle bin

Consider GVSKCGLRKIIDFIYTAKLSLNMD [V5C] . To which protein stability index class does it belong?
middle bin

Consider GVSKVGLRKIKDFIYTAKLSLNMD [I11K] . To which protein stability index class does it belong?
upper bin

Consider GVSKVGLRHIIDFIYTAKLSLNMD [K9H] . To which protein stability index class does it belong?
middle bin

Consider GVSKVGLRKIIDFIYTAKLSANMD [L21A] . To which protein stability index class does it belong?
lower bin

Consider GVSKVGLRKIIDFIYTACLSLNMD [K18C] . To which protein stability index class does it belong?
middle bin
